This section presents IC50 values reported for Mast/stem cell growth factor receptor Kit (Homo sapiens) in the literature.

Solved cases (7 shown):
Enquiry: # input molecule: `CCCCNc1ncnc2[nH]cc(C(=O)c3ccc(Nc4ccc(OC)nc4)nc3F)c12` ; wanted: its IC50
Return: < 1000 nM

Enquiry: # input molecule: `CCCNc1ncnc2[nH]cc(C(=O)c3ccc(Nc4ccc(C)nc4)nc3F)c12` ; wanted: its IC50
Return: < 100 nM

Enquiry: # input molecule: `CCN1CCC(Nc2ccc3c(c2)/C(=C(\c2ccc(C(F)(F)F)cc2)c2nc(C)c[nH]2)C(=O)N3)CC1` ; wanted: its IC50
Return: 50 to 500 nM

Enquiry: # input molecule: `CCN1CCC(Nc2ccc3c(c2)/C(=C(/c2ncc[nH]2)c2ccccc2F)C(=O)N3)CC1` ; wanted: its IC50
Return: < 50 nM

Enquiry: # input molecule: `CCCCS(=O)(=O)Nc1cccc(C(=O)c2c[nH]c3ncc(Cl)cc23)c1F` ; wanted: its IC50
Return: ≤ 10000 nM

Enquiry: # input molecule: `Cc1cccc(C)c1C(=O)c1c[nH]c2ncccc12` ; wanted: its IC50
Return: ≤ 10000 nM

Enquiry: # input molecule: `CCOc1c(OCc2ccc(Cl)cc2Cl)cccc1C(=O)c1c[nH]c2ncccc12` ; wanted: its IC50
Return: ≤ 10000 nM

Let's switch to this molecule now.
Enquiry: # input molecule: `COc1cnc2[nH]cc(C(=O)c3c(F)ccc(NS(=O)(=O)c4cc(F)ccc4F)c3F)c2c1` ; wanted: its IC50
Return: ≤ 10000 nM
